Ref: PubChem BioAssay (NCI)

What growth was measured for each of the following?
# System: UO-31 renal
# Test protocol: NCI-60 one-dose screen, 48 h (100 = growth as untreated, 0 = no growth, -100 = all killed)
# Assay setup: 10 µM unless noted
This is part of a sample that, as a whole, favours compounds with a hit. Of some 83,000 tested, about 20% had one in any assay.
Numbers only here, please. The scale is %.

Q: Form field: growth recorded for `N#C/C(=C\c1ccc(-c2cccc(Cl)c2)o1)C(=O)Nc1ncc(Cc2ccc(Cl)cc2)s1` with UO-31 renal (enter value)
Ans: 23.7

Q: Under UO-31 renal: growth value of COc1ccc(-c2cc(C(=O)N3N=C(c4ccc(N)cc4)CC3c3ccc(Cl)cc3)c3cc(OC)ccc3n2)cc1 (configuration not stated) ?
Ans: 57

Q: Value wanted: growth (UO-31 renal) of entry `CC(=O)c1c(Nc2cccc(F)c2)[nH]c2c(Cl)cc(Cl)c(Cl)c2c1=O`
Ans: 6.24

Q: Give recorded growth with UO-31 renal for the following compound: `C#CCOc1ccc2nc(CCl)c(Cl)c(Nc3cccc(C(F)(F)F)c3)c2c1`
Ans: 51.8

Q: Give UO-31 renal growth for `c1ccc(-c2ccc3c(c2)C2(CCNCC2)CN3)cc1`
Ans: 66.1

Q: Item `O=S(=O)(NCCNc1nccc(-c2c(-c3ccc(F)c(O)c3)nc3sccn23)n1)c1ccc(Cl)cc1` with UO-31 renal - growth?
Ans: 11.6

Q: Query growth on UO-31 renal for `CC(=O)O[C@H]1CC[C@]2(C)[C@H]3CC=C4[C@@H]5CC(C)(C)CC[C@]5(C(=O)N5CCN(CCC#N)CC5)CC[C@@]4(C)[C@]3(C)CC[C@H]2C1(C)C`
Ans: 30.2

Q: For UO-31 renal, provide growth of `COC(=O)/C=C1/SC(=Nc2ccc(F)cc2)N(CCc2c[nH]c3ccc(O)cc23)C1=O` please.
Ans: 46.4

Q: GET /values?readout=growth&system=UO-31 renal&item= `O=c1cc(C(F)(F)F)c2cc(-c3cc4ccccc4c(=O)o3)c(O)cc2o1`
Ans: 58.5

Q: Hi! What's the reported growth for `CCOC(=O)c1nnn(-c2no[n+]([O-])c2-c2ccc(OC)cc2)c1COc1cccc2cccnc12` on UO-31 renal?
Ans: 34.3

Q: Any idea what growth came out for `Cc1ccc2c(c1)sc1nc(-c3c[nH]c4ccccc34)c(Nc3ccccc3)n12` on UO-31 renal?
Ans: 77.3

Q: So what growth did `COc1ccc(Nc2ncc(C#N)c(NCCCNC(=O)C3CCC3)n2)cc1` get with UO-31 renal?
Ans: 11.1
